Below, each of the molecules is paired with its reported log10 IC50 value.
Target: human HSV DNA polymerase UL30 (Human herpesvirus 1 (strain 17) (HHV-1) (Human herpes simplex virus 1), UniProt P04293)
Assay: HSV polymerase biochemical assay (molecular beacon-based)
Please keep in mind that the values are log10 of IC50 expressed in nM.

# annotated cases, reported log10 IC50 shown
O=C(NCc1ccc(Cl)cc1)c1cc(Br)c2n(c1=O)CCN(CCN1CCCS1(=O)=O)C2=O [Example 124]    2.49
O=C(NCc1ccc(Cl)cc1)c1ccc2n(c1=O)CCN(CC1(N3CCCC3=O)CC1)C2=O [Example 201]    3.61
C[C@@H](CCO)S(=O)(=O)C1(CN2CCn3c(ccc(C(=O)NCc4ccc(C#N)cc4)c3=O)C2=O)CC1 (single isomer, unassigned) [Example 8]    2.05
Cc1cc(C(=O)NCc2ccc(C#N)c(F)c2)c(=O)n2c1C(=O)N(CC1(S(C)(=O)=O)CC1)CC2 [Example 86-2]    2.44

Now consider a different molecule.
Give the measured log10 IC50 of N#Cc1ccc(CNC(=O)c2ccc3n(c2=O)CCN(CC2(S(=O)(=O)C4(F)CC4)CC2)C3=O)cc1 [Example 77-1] .
1.98

Data provenance is patent US12466821B2.
